Protocol Summary: Metabolic stability in pooled human liver microsomes assessed as half life at 3 uM measured up to 45 mins in presence of NADPH by LC-MS/MS analysis
Format: ADME, Microsome
Experimental Setup: pooled liver microsomes
Assay Readout: half-life at 3 µM (min)

Example results:
Compound: CS(=O)(=O)Nc1ccc(-c2cc3c(N[C@H](CO)c4ccccc4)ncnc3[nH]2)cc1
half-life at 3 µM (min): 136

Compound: C[C@@H](Nc1ncnc2[nH]c(-c3ccc(NS(C)(=O)=O)cc3)cc12)c1ccccc1
half-life at 3 µM (min): 65.4

Compound: C#Cc1cccc(Nc2ncnc3cc(OCCOC)c(OCCOC)cc23)c1 [ERLOTINIB]
half-life at 3 µM (min): 31.7

[A] COc1cc(CO)ccc1-c1cc2c(N[C@H](CO)c3ccccc3)ncnc2[nH]1
[B] OCc1ccc(-c2cc3c(N[C@H](CO)c4ccccc4)ncnc3[nH]2)cc1
Exam item: Higher half-life at 3 µM: A or B ? Indicate which entry you chose by stating its label.
Marked response: B
(B: 266 min, A: 110 min)

====

Study System: Protein kinase C beta type (Homo sapiens)
Protocol Summary: Inhibition of human full length GST tagged PRKCB1 expressed in insect cells at 500 nM using Ser/Thr 07 as substrate incubated for 1 hr in presence of ATP at its Km concentration by Z'-LYTE assay relative to control
Assay Readout: inhibition (%)

Example results:
Compound: COc1ccccc1-c1cc2c(N[C@H](CO)c3ccccc3)ncnc2[nH]1
Unit String: %
Reported Value: 8
--
Compound: C#Cc1cccc(Nc2ncnc3cc(OCCOC)c(OCCOC)cc23)c1 [ERLOTINIB]
Unit String: %
Reported Value: -2
--
Compound: CCOc1ccccc1-c1cc2c(N[C@H](CO)c3ccccc3)ncnc2[nH]1
Unit String: %
Reported Value: 15
--
Compound: OCC[C@@H](Nc1ncnc2[nH]c(-c3ccccc3)cc12)c1ccccc1
Unit String: %
Reported Value: 6

[A] OC[C@@H](Nc1ncnc2[nH]c(-c3ccccc3)cc12)c1ccccc1
[B] CN(C)CCNCc1ccc(-c2cc3c(N[C@H](CO)c4ccccc4)ncnc3[nH]2)cc1F
Exam item: Higher inhibition: A or B ? Indicate which entry you chose by stating its label.
Marked response: B
(B: 17%, A: 1%)

====

Study System: Mitogen-activated protein kinase 14 (Homo sapiens) (UniProt Q16539)
Sequence (Q16539 whole entry): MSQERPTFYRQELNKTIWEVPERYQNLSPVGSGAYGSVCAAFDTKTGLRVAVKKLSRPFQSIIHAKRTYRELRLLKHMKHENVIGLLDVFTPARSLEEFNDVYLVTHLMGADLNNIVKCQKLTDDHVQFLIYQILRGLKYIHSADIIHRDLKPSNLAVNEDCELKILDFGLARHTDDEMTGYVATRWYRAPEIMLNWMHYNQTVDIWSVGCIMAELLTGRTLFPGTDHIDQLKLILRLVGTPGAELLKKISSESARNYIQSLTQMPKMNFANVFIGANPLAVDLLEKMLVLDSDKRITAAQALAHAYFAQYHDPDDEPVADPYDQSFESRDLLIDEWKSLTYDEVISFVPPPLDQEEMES
Protocol Summary: Inhibition of recombinant human GST-tagged full length MAPK14 expressed in Escherichia coli expression system at 500 nM using Ser/Thr 04 as substrate incubated for 1 hr in presence of ATP at its Km concentration by Z'-LYTE assay relative to control
Assay Readout: inhibition (%)

Query Smiles: OCC[C@@H](Nc1ncnc2[nH]c(-c3ccccc3)cc12)c1ccccc1
Study System: Mitogen-activated protein kinase 14 (Homo sapiens) (UniProt Q16539)
Assay Readout: inhibition
Reported Value: 14
--
Query Smiles: COc1ccccc1-c1cc2c(N[C@H](CO)c3ccccc3)ncnc2[nH]1
Study System: Mitogen-activated protein kinase 14 (Homo sapiens) (UniProt Q16539)
Assay Readout: inhibition
Reported Value: 24
--
Query Smiles: OC[C@@H](Nc1ncnc2[nH]c(-c3ccccc3)cc12)c1ccccc1
Study System: Mitogen-activated protein kinase 14 (Homo sapiens) (UniProt Q16539)
Assay Readout: inhibition
Reported Value: 19

[P] CN(C)CCNCc1ccc(-c2cc3c(N[C@H](CO)c4ccccc4)ncnc3[nH]2)cc1F
[Q] CCOc1ccccc1-c1cc2c(N[C@H](CO)c3ccccc3)ncnc2[nH]1
Exam item: Higher inhibition: P or Q ? Indicate which entry you chose by stating its label.
Marked response: P
(P: 20%, Q: 10%)
